- tgt: T1, FcRL4, overexpressed on 3T3 cells (UniProt Q96PJ5 20-515, limits assumed)
- T1 construct: whole, on cells
- T1 sequence (looked up): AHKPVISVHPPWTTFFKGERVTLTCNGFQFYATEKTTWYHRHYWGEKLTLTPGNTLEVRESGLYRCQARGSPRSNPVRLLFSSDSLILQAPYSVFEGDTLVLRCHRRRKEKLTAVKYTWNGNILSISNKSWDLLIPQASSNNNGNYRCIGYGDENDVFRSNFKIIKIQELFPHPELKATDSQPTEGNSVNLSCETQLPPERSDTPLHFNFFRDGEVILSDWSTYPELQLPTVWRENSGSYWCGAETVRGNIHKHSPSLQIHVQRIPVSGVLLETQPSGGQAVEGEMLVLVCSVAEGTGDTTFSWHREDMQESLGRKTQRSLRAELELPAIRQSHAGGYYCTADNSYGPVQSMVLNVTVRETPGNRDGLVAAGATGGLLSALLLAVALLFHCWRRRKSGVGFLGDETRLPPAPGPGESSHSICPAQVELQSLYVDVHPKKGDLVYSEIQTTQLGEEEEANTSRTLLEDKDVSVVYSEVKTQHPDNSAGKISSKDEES
- assay details: phage clone on 3T3-FcRL4 cells
measurement kind: binding result

binder="ET200-022 (scFv, screened as phage clone; entry is VL-linker-VH-His tag-HA tag) scFv: QSVVTQPPSVSAAPGQKVTISCSGSSSNIGNNYVSWYQQLPGTAPKLLIYDNNKRPSGIPDRFSGSKSGTSATLGITGLQTGDEADYYCGTWDSSLGAPYVFGTGTKVTVLGSRGGGGSGGGGSGGGGSLEMAEVQLVQSWGGSEQPGRSLRLSCAASGFTFDDYAMHWVRQAPGKGLEWVSGISWNSGSIGYADSVKGRFTISRDNAKNSLYLQMNSLRAEDTAMYYCARYRQVGSAYDSWGQGTLVTVSSTSGQAGQHHHHHHGAYPYDVPDYAS" result="no binding"
binder="ET200-032 (scFv, screened as phage clone; entry is VL-linker-VH-His tag-HA tag) scFv: LPVLTQPPSASGTPGQRVTISCSGSSSNVGSYTVNWYRQLPGTAPTLLIYNNNQRPSGVPDRFSDSKSGTSASLTISGLQPEDEADYYCAAWDDRLGGYVFGTGTKVTVLGSRGGGGSGGGGSGGGGSLEMAEVQLVQSGAEVKKPGESLKISCKGSGYSFTNYWIGWVRQMPGKGLEWMGIIYPGDSDTRYSPSFQGQVTISADKSISTAYLQWSSLKASDTAMYYCARSTGSSHMSDEWGQGTLVTVSSTSGQAGQHHHHHHGAYPYDVPDYAS" result="no binding"

Ref: patent US20210388081A1
